src = paper PMC5651866

# Test protocol: Cytotoxicity study (CellTiter 96 AQueous One) in Vero cells
# Assay type: cell-based
# Settings: African green monkey; 10 μM; 48 h; read-out: Cells viability (%, means ± SEM) Vero
Readout: viability at 48 h, 10 µM

{"Smiles input": "COc1ccc(/C=C/C(=O)c2ccccc2O)cc1", "Result": "> 100%"}

###

# Test protocol: Cytotoxicity study (CellTiter 96 AQueous One) in HEK-293 cells
# Assay type: cell-based
# Settings: human, 25 μM, read-out: Cells viability (%, means ± SEM) HEK-293

{"Compound": "COc1ccc(/C=C/C(=O)c2ccccc2O)cc1 [CH1]", "Readout unit": "%", "viability at 48 h, 25 µM": 41.3}
